# Test system: MS2 coat protein
# methodDescription: apparent KD of MS2 coat protein; designed switch direction (-1 OFF switch, 1 ON switch): -1; higher = weaker reporter binding
# experimentalContext: input ligand: FMN 200 uM
The threshold is inclusive: apparent KD of MS2 coat protein of exactly 0.05 µM counts as rule met; values below receive rule not met.

Please review the entries below; each comes with its answer.
{"sequenceChain": "AGUCGGUCAGGAUAUGCAGACGUAGACAUGAGGAUCACCCAUGUGACGUGGGCCUGGUUUGUAGAAGGGACGAGCA [EX5 #83] (Eterna round: R97, puzzle: Exclusion 5)", "discreteLabel": "rule not met"}
{"sequenceChain": "GCAGUCAAAGUGAGGAUAUCUAGAGCGAUAGCUCUAGAGAAGGCACAUGAGGAUCACCCAUGUGAUCAGACUGC [BmEx4/7-A4'1] (Eterna round: R97, puzzle: Brourd's mod of Exclusion 4)", "discreteLabel": "rule met"}
{"sequenceChain": "CCGGCUUAGGAGGAUAUCCCACCCGAAAGGGUGGGAGAAGGCCUAACAUGAGGAUCACCCAUGUGUCCUACCGG [Mod of Eli 15 - Jieux - Exclusion 6] (Eterna round: R97, puzzle: Exclusion 6)", "discreteLabel": "rule met"}

Moving on to the next sequence.
### Prompt // inclusive: apparent KD of MS2 coat protein at least 0.05 µM? input: AAUAAGGGAGGAUAUACAUGAGGAUCACCCAUGUUUGUAAUUUAAUUCGGGAGUAUUAGUAGAAGGCCCAAUAA [lam1] (Eterna round: R97, puzzle: Exclusion 3)
### Response rule met
